protocol text: Antioxidant activity assessed as DPPH radical scavenging activity incubated for 30 mins under dark condition by UV-vis spectrophotometric method
Type: functional
The reader will find reported IC50 values listed item by item below.
Numeric only. Scale: µM

Please list IC50 recorded for the compound N/N=C1/c2cc(I)ccc2-n2c1nc1ccccc1c2=O
24.9

Please list IC50 recorded for the compound N/N=C1/c2cc(F)ccc2-n2c1nc1ccccc1c2=O
16.4

Please list IC50 recorded for the compound N/N=C1/c2cc(-c3ccncc3)ccc2-n2c1nc1ccccc1c2=O
11.2

New cases:
Please list IC50 recorded for the compound CC(/C=C(\O)c1ccccc1)=N\N=C1\c2cc(I)ccc2-n2c1nc1ccccc1c2=O
11.6

Please list IC50 recorded for the compound COc1cccc(/C=N/N=C2/c3cc(-c4ccc(C(=O)O)cc4)ccc3-n3c2nc2ccccc2c3=O)c1O
5.31

Please list IC50 recorded for the compound N/N=C1/c2cc(Cl)ccc2-n2c1nc1ccccc1c2=O
19.9

Please list IC50 recorded for the compound CC(/C=C(\O)c1ccccc1)=N\N=C1\c2cc(-c3ccc(C(=O)O)cc3)ccc2-n2c1nc1ccccc1c2=O
5.02

Please list IC50 recorded for the compound CC(/C=C(\O)c1ccccc1)=N\N=C1\c2cc(Cl)ccc2-n2c1nc1ccccc1c2=O
12.5

Please list IC50 recorded for the compound O=C1O[C@H]([C@@H](O)CO)C(O)=C1O
3.48

Please list IC50 recorded for the compound COc1cccc(/C=N/N=C2/c3cc(-c4ccncc4)ccc3-n3c2nc2ccccc2c3=O)c1O
4.98

----------
Tested on: HeLa
protocol text: Cytotoxicity against human HeLa cells after 6 days by MTT assay
Format: functional, cell-based
conditions used: 144 h
reported property: IC50 (µM)
Numeric only. Scale: µM

Please list IC50 recorded for the molecule CC(/C=C(\O)c1ccccc1)=N\N=C1\c2cc(F)ccc2-n2c1nc1ccccc1c2=O
24.5

Please list IC50 recorded for the molecule CC(/C=C(\O)c1ccccc1)=N\N=C1\c2cc(I)ccc2-n2c1nc1ccccc1c2=O
18.8

Please list IC50 recorded for the molecule N/N=C1/c2cc(-c3ccc(C(=O)O)cc3)ccc2-n2c1nc1ccccc1c2=O
54.3

Please list IC50 recorded for the molecule N/N=C1/c2cc([N+](=O)[O-])ccc2-n2c1nc1ccccc1c2=O
50.3

Please list IC50 recorded for the molecule CC(/C=C(\O)c1ccccc1)=N\N=C1\c2cc(-c3ccncc3)ccc2-n2c1nc1ccccc1c2=O
12.2

New cases:
Please list IC50 recorded for the molecule COc1cccc(/C=N/N=C2/c3cc(-c4ccncc4)ccc3-n3c2nc2ccccc2c3=O)c1O
24.8

Please list IC50 recorded for the molecule CC(/C=C(\O)c1ccccc1)=N\N=C1\c2cc(Cl)ccc2-n2c1nc1ccccc1c2=O
23.6

Please list IC50 recorded for the molecule COc1cccc(/C=N/N=C2/c3cc([N+](=O)[O-])ccc3-n3c2nc2ccccc2c3=O)c1O
38

Please list IC50 recorded for the molecule COc1cccc(/C=N/N=C2/c3cc(-c4ccc(C(=O)O)cc4)ccc3-n3c2nc2ccccc2c3=O)c1O
32.3

Please list IC50 recorded for the molecule N/N=C1/c2cc(I)ccc2-n2c1nc1ccccc1c2=O
51.1

Please list IC50 recorded for the molecule CC(/C=C(\O)c1ccccc1)=N\N=C1\c2cc([N+](=O)[O-])ccc2-n2c1nc1ccccc1c2=O
33.1

Please list IC50 recorded for the molecule N/N=C1/c2cc(-c3ccncc3)ccc2-n2c1nc1ccccc1c2=O
44.1

Please list IC50 recorded for the molecule COc1cccc(/C=N/N=C2/c3cc(I)ccc3-n3c2nc2ccccc2c3=O)c1O
29.2
